Origin of the recorded values: patent US20080004310A1

# protocol.notes: physchem
Where a name gives a salt, the structure may show the parent alone.
experimental.endpoint: solubility

[ask] Please look up its solubility: COc1ccc(Cc2nccc3cc(OC)c(OC)cc23)cc1OC [Papaverine HCl, papaverine hydrochloride]
[reply] ~90 mg/mL
